Target: protein kinases (human kinome) (Homo sapiens, UniProt P53667)
Sequence (P53667 whole entry): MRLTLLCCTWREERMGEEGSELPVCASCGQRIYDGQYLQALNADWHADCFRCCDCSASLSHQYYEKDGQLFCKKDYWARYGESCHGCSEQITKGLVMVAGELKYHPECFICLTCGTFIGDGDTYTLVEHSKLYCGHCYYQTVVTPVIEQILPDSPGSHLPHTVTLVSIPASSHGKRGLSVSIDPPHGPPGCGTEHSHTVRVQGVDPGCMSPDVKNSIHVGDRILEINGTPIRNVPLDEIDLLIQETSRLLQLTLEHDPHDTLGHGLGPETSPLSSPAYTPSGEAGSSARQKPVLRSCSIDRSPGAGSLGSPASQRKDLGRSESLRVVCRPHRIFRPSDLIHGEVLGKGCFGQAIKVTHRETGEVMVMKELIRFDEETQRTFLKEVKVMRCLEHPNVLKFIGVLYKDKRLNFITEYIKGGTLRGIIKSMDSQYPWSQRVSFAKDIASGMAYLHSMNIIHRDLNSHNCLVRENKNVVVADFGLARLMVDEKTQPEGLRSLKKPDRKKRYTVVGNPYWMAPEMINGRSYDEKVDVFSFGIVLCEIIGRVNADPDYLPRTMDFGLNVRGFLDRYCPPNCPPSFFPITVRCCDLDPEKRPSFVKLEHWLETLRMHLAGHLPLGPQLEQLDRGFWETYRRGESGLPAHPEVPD
Type: cell-based
Details: LIMK1 (P53667-1); experiment wp137; down
endpoint: logFC LIMK1

molecule	endpoint	measuredResult
CC(C)S(=O)(=O)c1ccccc1Nc1nc(Nc2ccc(N3CCN(CCOCCOCCNC(=O)CNc4cccc5c4C(=O)N(C4CCC(=O)NC4=O)C5=O)CC3)cc2)ncc1Cl (stereo not shown) [TL12.186]	logFC LIMK1	−0.8734
CC(C)S(=O)(=O)c1ccccc1Nc1nc(Nc2ccc(N3CCN(CCOCCOCCC(=O)NCCNc4cccc5c4CN(C4CCC(=O)NC4=O)C5=O)CC3)cc2)ncc1Cl (stereo not shown) [TL13.97]	logFC LIMK1	−1.173
CC(C)(C)c1nc(-c2cccc(NS(=O)(=O)c3c(F)cccc3F)c2F)c(-c2ccnc(NCCOCCNC(=O)CCOCCOCCNc3cccc4c3CN(C3CCC(=O)NC3=O)C4=O)n2)s1 (stereo not shown) [DD.03.107]	logFC LIMK1	−1.222
CC(C)(C)c1nc(-c2cccc(NS(=O)(=O)c3c(F)cccc3F)c2F)c(-c2ccnc(NCCOCCNC(=O)CCOCCOCCNc3cccc4c3C(=O)N(C3CCC(=O)NC3=O)C4=O)n2)s1 (stereo not shown) [DD.03.106]	logFC LIMK1	−1.981
